# Read-out: Insulin-like growth factor-binding protein 1 (IGFBP1), IGFBP1 (gene 3484)
# PROCEDURE_DETAILS: LTEA_HepaRG_IGFBP1: Life Technologies and Expression Analysis (LTEA) Assay for Insulin-like growth factor-binding protein 1 (IGFBP1) using HepaRG (AID 2283508)
# EXPERIMENTAL_SETUP: mRNA level, 48 h; actives raise or lower the signal
# Method: LTEA_HepaRG is a cell based, multiplexed-readout assay that uses HepaRG, a human liver cell line, with measurements taken at 48 hours after chemical dosing on a 96-well plate.LTEA_HepaRG_IGFBP1 is one of 102 assay component(s) measured in the LTEA HepaRG cell culture assay. It is a marker of Cell proliferation, survival, death.Data from the assay component LTEA_HepaRG_IGFBP1 was analyzed into 1 endpoint. […]
The source made the active and inactive calls. How the source made its calls: active means hit-call score of the fitted dose curve at least 0.9, where 1 is the maximum; inactive means score below 0.9.
Labels: active, inactive

{"MOLECULE": "Fc1ccc(Oc2ccnc3cc(Cl)cc(Cl)c23)cc1", "CATEGORY_LABEL": "active"}
{"MOLECULE": "COc1nc(NC(C)C)nc(NC(C)C)n1", "CATEGORY_LABEL": "inactive"}
{"MOLECULE": "CCNc1nc(Cl)nc(NCC)n1", "CATEGORY_LABEL": "inactive"}
{"MOLECULE": "CNC(=O)ON=CC(C)(C)SC", "CATEGORY_LABEL": "inactive"}
{"MOLECULE": "CCCCNC(=O)n1c(NC(=O)OC)nc2ccccc21", "CATEGORY_LABEL": "inactive"}
{"MOLECULE": "COP(=S)(OC)Oc1nc(Cl)c(Cl)cc1Cl", "CATEGORY_LABEL": "inactive"}
{"MOLECULE": "CCON=C(CC)C1=C(O)CC(c2c(C)cc(C)cc2C)CC1=O (configuration not stated)", "CATEGORY_LABEL": "inactive"}
{"MOLECULE": "CNC(=S)S", "CATEGORY_LABEL": "inactive"}
{"MOLECULE": "CC(Oc1ccc(Cl)cc1Cl)C(=O)O (configuration not stated)", "CATEGORY_LABEL": "inactive"}
{"MOLECULE": "Oc1ccccc1-c1ccccc1", "CATEGORY_LABEL": "inactive"}
{"MOLECULE": "C=CC1(C)OC(=O)N(c2cc(Cl)cc(Cl)c2)C1=O (configuration not stated)", "CATEGORY_LABEL": "inactive"}
{"MOLECULE": "CS/C(C)=N/OC(=O)N(C)SN(C)C(=O)O/N=C(\\C)SC", "CATEGORY_LABEL": "inactive"}
